- Measured On: human Peroxisome Proliferator-activated Receptor alpha (PPARa), PPARA (gene 5465)
- Assay Protocol: ATG_PPARa_TRANS: Attagene TRANS-FACTORIAL HepG2 Assay for human Peroxisome Proliferator-activated Receptor alpha (PPARa) (AID 2283001)
- Description: ATG_TRANS is a cell-based, multiplexed-readout assay that uses HepG2, a human liver cell line, with measurements taken at 24 hours after chemical dosing in a 24-well plate.ATG_PPARa_TRANS is one of 30 assay component(s) measured or calculated from the ATG_TRANS assay. […] This assay endpoint, ATG_PPARa_TRANS, was analyzed in the positive analysis fitting direction relative to DMSO as the negative control and baseline of activity. […]
Results filed as inconclusive are left out. Active and inactive are the calls of the source. The calls were made as follows: active = hit-call score of the fitted dose curve at least 0.9, where 1 is the maximum; inconclusive = response in the unintended direction; inactive = score below 0.9.
// one of label 1 = active, label 0 = inactive, no free text

Past entries and their recorded results:
CCOC(=O)C(C)OC(=O)c1cc(Oc2ccc(C(F)(F)F)cc2Cl)ccc1[N+](=O)[O-] (centres undefined) :: label 1
Cc1cnc(C2=NC(C)(C(C)C)C(=O)N2)c(C(=O)O)c1 (centres undefined) :: label 0

Give the logged outcome of this assay for the following compound: CN=C=S
label 0

Please share the test call associated with COP(=O)(OC)O/C(C)=C/C(=O)N(C)C .
label 0

* * *

- Assay Protocol: APR_HepG2_CellCycleArrest_72hr: Apredica 72-hour HepG2 Assay for Cell Cycle Arrest (AID 2282914)
- Details: high-content imaging, actives raise or lower the signal
Activity calls are given as the source filed them. Rule for the calls: active = hit-call score of the fitted dose curve at least 0.9, where 1 is the maximum; inactive = score below 0.9.
Lab note: assign the record to one of Yes for active, No for inactive

Look over these answered cases.
CC(C)Nc1nc(Cl)nc(NC(C)C)n1 :: No
O=C(O)c1c(Cl)ccc2cc(Cl)cnc12 :: No
CN/C(=N\[N+](=O)[O-])NCc1cnc(Cl)s1 :: No

// return assay outcome for CCN(CC)c1nc(C)cc(OP(=S)(OC)OC)n1
No

Status in this test for CCCCOCN(C(=O)CCl)c1c(CC)cccc1CC ?
No

GET /call?item= Cc1ccc(N=CN(C)C=Nc2ccc(C)cc2C)c(C)c1 returns the recorded outcome of this test.
No

* * *

- Read-out: Broad substrate specificity ATP-binding cassette transporter ABCG2 (Homo sapiens)
- Assay Protocol: CLD_ABCG2_48hr: CellzDirect (CLD) Gene Expression Assay for ABC Transporter (ABCG2) at 48 hours (AID 2283704)
Records with an inconclusive call do not appear. Activity calls are given as the source filed them. Rule for the calls: active = hit-call score of the fitted dose curve at least 0.9, where 1 is the maximum; inconclusive = response in the unintended direction; inactive = score below 0.9.
Output constraint: value belongs to active, inactive

Examples with answers:
CCSC(=O)N1CCCCCC1 :: inactive
COP(=S)(OC)Oc1ccc([N+](=O)[O-])c(C)c1 :: inactive
N#Cc1c(Cl)cccc1Cl :: inactive

Please let me know the test result on file for COCC(C)N(C(=O)CCl)c1c(C)csc1C (centres undefined) .
inactive

# outcome recorded in this test, key = N#CN=C1SCCN1Cc1ccc(Cl)nc1
inactive

GET /call?item= CC1(C)C(C(=O)OC(C#N)c2cccc(Oc3ccccc3)c2)C1(C)C (centres undefined) returns the recorded outcome of this test.
inactive

For this compound, state the assay outcome: CN=C=S
inactive

Record lookup: outcome of this test for COc1cc(Cl)c(OC)cc1Cl ?
inactive

Given CS(=O)(=O)c1ccc(C(=O)C2C(=O)CCCC2=O)c([N+](=O)[O-])c1 , state the outcome it received in this test.
inactive

Short answer needed: outcome of this test for CC(C)Oc1cccc(NC(=O)c2ccccc2C(F)(F)F)c1 ?
active

What outcome does the record of this test show for C=C(C)CN(CC)c1c([N+](=O)[O-])cc(C(F)(F)F)cc1[N+](=O)[O-] ?
inactive

Outcome logged for Cc1ccc(N=CN(C)C=Nc2ccc(C)cc2C)c(C)c1 in this assay:
active

Which outcome was entered for the compound CCNC(=O)NC(=O)C(C#N)=NOC in this test?
inactive

Tell me the recorded outcome of this test for COc1ccc(-c2ccccc2)cc1NNC(=O)OC(C)C .
inactive

What is the recorded call for this compound in the test? CO/N=C(/C1=NOCCO1)c1ccccc1Oc1ncnc(Oc2ccccc2Cl)c1F
inactive

// return assay outcome for Cc1c(COC(=O)[C@@H]2[C@H](/C=C(\Cl)C(F)(F)F)C2(C)C)cccc1-c1ccccc1
inactive

Hi, sorry to bother you, what did the test record for CC(C)(C)C(=O)C(Oc1ccc(Cl)cc1)n1cncn1 (centres undefined) ?
inactive

Which outcome did this test record for the compound Clc1cccc(C(Cl)(Cl)Cl)n1 ?
inactive

Which outcome was entered for the compound CC(C)=CC1C(C(=O)OCc2coc(Cc3ccccc3)c2)C1(C)C (centres undefined) in this test?
inactive

* * *

- Read-out: ABC Transporter (ABCC3), ABCC3 (gene 8714)
- Assay Protocol: LTEA_HepaRG_ABCC3: Life Technologies and Expression Analysis (LTEA) Assay for ABC Transporter (ABCC3) using HepaRG (AID 2283462)
- Details: mRNA level, 48 h; actives raise or lower the signal
The source made the active and inactive calls. How the source made its calls: active means hit-call score of the fitted dose curve at least 0.9, where 1 is the maximum; inactive means score below 0.9.
Outcome (select one): 1.0 (active), 0.0 (inactive)

For orientation, consider the following solved cases.
CC(C)Nc1nc(Cl)nc(NC(C)C)n1 :: 0.0
CCOP(=O)(OCC)Oc1nc(Cl)c(Cl)cc1Cl :: 1.0
Clc1cccc(C(Cl)(Cl)Cl)n1 :: 0.0
CC(C)Oc1cccc(NC(=O)c2ccccc2C(F)(F)F)c1 :: 0.0
N#Cc1c(Cl)cccc1Cl :: 0.0

Hi team, can someone confirm the assay call for N#Cc1c[nH]cc1-c1cccc2c1OC(F)(F)O2 ?
0.0

Answer briefly: the call reported for CCOC(=O)C(C)OC(=O)c1cc(Oc2ccc(C(F)(F)F)cc2Cl)ccc1[N+](=O)[O-] (stereo unspecified) in this assay.
0.0

Hi, sorry to bother you, what did the test record for O=P(O)(O)CCCl ?
0.0

Short answer needed: outcome of this test for CCCN(CC)CC1COC2(CCC(C(C)(C)C)CC2)O1 (stereo unspecified) ?
0.0

Record request — test call for COC(=O)c1c(C(F)F)nc(C(F)(F)F)c(C2=NCCS2)c1CC(C)C
0.0

Short answer needed: outcome of this test for CCCCOCN(C(=O)CCl)c1c(CC)cccc1CC ?
0.0

Write down the call the test reported for this compound. Item: COCC(=O)N(c1c(C)cccc1C)C(C)C(=O)OC (stereo unspecified)
0.0

Which result was noted for this compound in the test: CCOP(=S)(OCC)Oc1nc(Cl)n(C(C)C)n1
1.0

What classification did COc1ccc(-c2ccccc2)cc1NNC(=O)OC(C)C end up with in this test?
0.0

I'd appreciate the recorded outcome for Nc1c(Cl)c(Cl)nc(C(=O)O)c1Cl from this test.
0.0

Hi team, can someone confirm the assay call for COc1cc(OC)nc(NC(=O)NS(=O)(=O)c2ncccc2OCC(F)(F)F)n1 ?
0.0

Any idea what this test logged for N#CN=C1SCCN1Cc1ccc(Cl)nc1 ?
0.0

* * *

- Assay Protocol: BSK_SAg_SRB: Viability Assessment in the BioMAP Diversity Plus: SAg Assay (AID 2283096);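 also: cells read one day after compound addition; hits may be either gain or loss of signal compared with DMSO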
- Details: primary human HUVEC with PBMC
- Procedure: BSK_SAg is a cell-based, multiplexed-readout assay that uses umbilical vein endothelium and peripheral blood mononuclear cells, a human vascular primary cell co-culture, with measurements taken at 24 hours after chemical dosing in a 96-well plate.BSK_SAg_SRB is an assay component measured in the BSK_SAg assay. […] This assay endpoint, BSK_SAg_SRB, was analyzed with bidirectional fitting relative to DMSO as the negative control and baseline of activity. […]
Calls of active or inactive are those of the source. Rule for the calls: active = hit-call score of the fitted dose curve at least 0.9, where 1 is the maximum; inactive = score below 0.9.
Outcome (select one): active, inactive

Cc1cnc(C2=NC(C)(C(C)C)C(=O)N2)c(C(=O)O)c1 (centres undefined) :: inactive
Cc1nc(N(C)C)nc(OC(=O)N(C)C)c1C :: inactive
O=C(Nc1ccccc1-c1ccc(Cl)cc1)c1cccnc1Cl :: inactive
COCc1cnc(C2=NC(C)(C(C)C)C(=O)N2)c(C(=O)O)c1 (centres undefined) :: inactive

So what was the verdict on COP(=S)(OC)Oc1ccc([N+](=O)[O-])c(C)c1 in this test?
inactive

Assay outcome for COC(=O)NS(=O)(=O)c1ccc(N)cc1 : what was it?
inactive

# fetch the recorded call for Cn1c(-c2ccccc2)cc(-c2ccccc2)[n+]1C here
inactive

Which outcome did this test record for the compound O=P(O)(O)CCCl ?
inactive

For CC(C)N1C(=O)c2ccccc2NS1(=O)=O , what call appears in the results of this test?
inactive

Write down the call the test reported for this compound. Item: COP(=S)(OC)SCn1nnc2ccccc2c1=O
inactive

Call for entry CC1(C)C(C=C(Cl)Cl)C1C(=O)OC(C#N)c1cccc(Oc2ccccc2)c1 (centres undefined) :
active

Query: recorded result category for COc1cc(Cl)c(OC)cc1Cl in this test
inactive

Fill in: this test's call for CNC(=O)N(C)c1nnc(C(C)(C)C)s1 is ___
inactive

Identify the outcome logged in this assay for the compound shown: CO/N=C(/C1=NOCCO1)c1ccccc1Oc1ncnc(Oc2ccccc2Cl)c1F
active
